- System: human Factor 7 mRNA
- EXPERIMENT NOTES: Dose-dependent antisense inhibition of human Factor 7 in HepB3 cells, transfection with electroporation
- Type: cell-based
- PARTICULARS: 12.5 μM, 16 hours (Example 7, Table 15)
In the oligonucleotide strings, read from the 5' end, every base follows the letter of its sugar. An asterisk marks phosphorothioate; unmarked linkages are phosphodiester. Other units and linkages are bracketed, terminal groups are in braces. A string of capitals states the bases alone. e = 2'-O-(2-methoxyethyl) (MOE); [5mC] = 5-methylcytosine; d = 2'-deoxy (DNA)
This listing pairs substances with measured percent inhibition of Factor 7 mRNA, relative to untreated control cells.
Expressed in %, but write only the number.

Known results for substances:
[[record]]
substance = "422295 (antisense e[5mC]*eG*dA*dG*dT*dT*d[5mC]*dT*dG*d[5mC]*dA*dG*dG*dA*dG*e[5mC]*eG*eG*e[5mC]*e[5mC]) [compound 422295]"
system_tested = "human Factor 7 mRNA"
display_unit = "%"
measurement = 37

[[record]]
substance = "422142 (antisense eG*eA*eG*eT*eT*d[5mC]*dT*dG*d[5mC]*dA*dG*dG*dA*dG*d[5mC]*eG*eG*e[5mC]*e[5mC]*eT) [compound 422142]"
system_tested = "human Factor 7 mRNA"
display_unit = "%"
measurement = 63

[[record]]
substance = "422140 (antisense eG*eT*eT*e[5mC]*eT*dG*d[5mC]*dA*dG*dG*dA*dG*d[5mC]*dG*dG*e[5mC]*e[5mC]*eT*eA*eA) [compound 422140]"
system_tested = "human Factor 7 mRNA"
display_unit = "%"
measurement = 51


Input: Item: 422130 (antisense eG*e[5mC]*e[5mC]*eT*eG*dA*dG*dG*d[5mC]*d[5mC]*dA*dG*d[5mC]*dA*dG*eA*eT*e[5mC]*eA*e[5mC]) [compound 422130] Test system: human Factor 7 mRNA Read-out: percent inhibition of Factor 7 mRNA, relative to untreated control cells Value: ?
Output: 59
